# Tested on: CCRF-CEM leukemia
# experiment_description: NCI tumour cell line growth inhibition, 48 h
result_type: TGI

[[record]]
compound = "C[Si]1(C)C(c2ccccc2)=CC2C(c3ccccc3)(c3ccccc3)OC21c1ccccc1 (stereo not drawn)"
system = "CCRF-CEM leukemia"
recorded_value = "> 100 µM"

[[record]]
compound = "Nc1ccc2nc3ccc(=O)cc-3n(-c3ccccc3)c2c1"
system = "CCRF-CEM leukemia"
recorded_value = "> 100 µM"

[[record]]
compound = "CCOC(=O)c1ccc(NC(=O)Nc2nccs2)cc1"
system = "CCRF-CEM leukemia"
recorded_value = "> 100 µM"


====

# Lookup of reported TGI keyed by entry
# System: HL-60(TB) leukemia
# experiment_description: NCI tumour cell line growth inhibition, 48 h
result_type: TGI

[[record]]
compound = "CCN(CC)c1ncnc2c1ncn2CCNC(CO)(CO)CO"
recorded_value = "> 100 µM"

[[record]]
compound = "COc1cc(Br)c(CC2NCCc3cc(OC)c(OC)cc32)cc1OC (centres undefined)"
recorded_value = "> 100 µM"

[[record]]
compound = "CC1OC(=O)C2CC3CCCCC3C(/C=C/C3CCCC(C)N3C)C12 (centres undefined)"
recorded_value = "> 100 µM"

[[record]]
compound = "Cc1nc(C(N)=S)sc1C(=O)CC(=O)C(=O)Nc1c(C(C)C)cccc1C(C)C"
recorded_value = "> 100 µM"


====

# Lookup of reported TGI keyed by entry
# Test system: A498 renal
# experiment_description: NCI tumour cell line growth inhibition, 48 h
result_type: TGI

[[record]]
query_smiles = "CC(C)(Oc1ccc(C(=O)c2ccc(Cl)cc2)cc1Cl)C(=O)Nc1c(Cl)cccc1Cl"
system = "A498 renal"
result_type = "TGI"
recorded_value = "> 100 µM"

[[record]]
query_smiles = "COc1ccc(NCC#N)cc1"
system = "A498 renal"
result_type = "TGI"
recorded_value = "> 100 µM"

[[record]]
query_smiles = "O=C1C(c2ccccc2)=C(c2ccccc2)C(c2ccc(-c3ccc(C4=C(c5ccccc5)C(=O)C(c5ccccc5)=C4c4ccccc4)cc3)cc2)=C1c1ccccc1"
system = "A498 renal"
result_type = "TGI"
recorded_value = "> 100 µM"

[[record]]
query_smiles = "Nc1[nH]c(=O)nc2c1cnn2Cc1ccccc1"
system = "A498 renal"
result_type = "TGI"
recorded_value = "> 100 µM"

[[record]]
query_smiles = "NS(=O)(=O)c1ccc(Nc2ncc(-c3ccccc3)o2)cc1"
system = "A498 renal"
result_type = "TGI"
recorded_value = "> 25 µM"


====

# System: SK-OV-3 ovarian
# experiment_description: NCI tumour cell line growth inhibition, 48 h; in the data active = GI50 below about 0.43 µM; inactive = the rest
Outcomes: 1 = active, 0 = inactive

[[record]]
molecule = "CCC(/C=C(C)/C=C/C(=O)c1c(O)c(-c2ccc(O)cc2)c[nH]c1=O)CO (stereo not given)"
system = "SK-OV-3 ovarian"
class_name = 0

[[record]]
molecule = "C=C1C(=O)O[C@H]2[C@H]1CC/C(COC(=O)NCc1ccc(Cn3c(=O)sn(CCI)c3=O)cc1)=C\\CC[C@@]1(C)O[C@@H]21"
system = "SK-OV-3 ovarian"
class_name = 0

[[record]]
molecule = "CNCCCNc1c2cc(OC)ccc2nc2cccc([N+](=O)[O-])c12"
system = "SK-OV-3 ovarian"
class_name = 1

[[record]]
molecule = "C=C1C(=O)O[C@H]2[C@H]1CC/C(COC(=O)NCc1[nH]nc3ccccc13)=C\\CC[C@@]1(C)O[C@@H]21"
system = "SK-OV-3 ovarian"
class_name = 0

[[record]]
molecule = "COc1cccc(-n2ncc3c(N/N=C/c4ccc(F)cc4)ncnc32)c1"
system = "SK-OV-3 ovarian"
class_name = 0

[[record]]
molecule = "C=C(C)[C@@H]1CC[C@]2(COC(C)=O)CC[C@]3(C)[C@H](CC[C@@H]4[C@@]5(C)CCCN(C(C)=O)C(C)(C)[C@@H]5CC[C@]43C)[C@@H]12"
system = "SK-OV-3 ovarian"
class_name = 0

[[record]]
molecule = "Oc1ccc(/C=C/c2ccc(O)cc2)cc1"
system = "SK-OV-3 ovarian"
class_name = 0

[[record]]
molecule = "Cc1ccc2c(NCCCN(C)C)c3c(C)nn(C)c3nc2c1"
system = "SK-OV-3 ovarian"
class_name = 0

[[record]]
molecule = "CCSc1ccc2c(c1)N(CCCN1CCN(C)CC1)c1ccccc1S2"
system = "SK-OV-3 ovarian"
class_name = 0

[[record]]
molecule = "C/C=C(/C(=C/C)c1ccc(O)cc1)c1ccc(O)cc1"
system = "SK-OV-3 ovarian"
class_name = 0


====

# System: EKVX NSCLC
# experiment_description: NCI tumour cell line growth inhibition, 48 h
# Lookup of reported TGI keyed by entry
result_type: TGI

[[record]]
compound = "O=C1c2ccc3c4c(ccc(c24)C(=O)N1CCCNCc1ccccc1F)C(=O)N(CCCNCc1ccccc1F)C3=O"
result_type = "TGI"
recorded_value = "0.331 µM"

[[record]]
compound = "COc1cccc(-n2ncc3c(N/N=C/c4ccc(F)cc4)ncnc32)c1"
result_type = "TGI"
recorded_value = "> 25 µM"

[[record]]
compound = "O=C(O)CCc1nc2c(n1Cc1ccccc1)C(=O)c1ccccc1C2=O"
result_type = "TGI"
recorded_value = "> 100 µM"

[[record]]
compound = "O=NN(CCCl)C(=O)NC1CCC(C(=O)O)CC1 (stereo not given)"
result_type = "TGI"
recorded_value = "> 100 µM"

[[record]]
compound = "Cc1nc(C(N)=S)sc1C(=O)CC(=O)C(=O)Nc1c(C(C)C)cccc1C(C)C"
result_type = "TGI"
recorded_value = "> 100 µM"

[[record]]
compound = "CSc1nc(-c2ccccc2)c(C#N)c(=O)[nH]1"
result_type = "TGI"
recorded_value = "> 100 µM"

[[record]]
compound = "CCCCCCCCCCCCCCCCNC(=O)OC(C)C"
result_type = "TGI"
recorded_value = "6.44 µM"

[[record]]
compound = "CCC(C)NC1=C(NC(C)=O)C(=O)c2ccccc2C1=O (stereo not given)"
result_type = "TGI"
recorded_value = "> 75 µM"

[[record]]
compound = "O=c1cc(NNc2ccc3ccccc3c2)[nH]c(=S)[nH]1"
result_type = "TGI"
recorded_value = "> 100 µM"

[[record]]
compound = "Cc1cc(C)c2c(=O)cc(-c3cccc(Cl)c3)[nH]c2n1"
result_type = "TGI"
recorded_value = "> 100 µM"

[[record]]
compound = "N=C1N(c2ccccc2)C(=S)C(=Nc2ccccc2)N1c1ccccc1"
result_type = "TGI"
recorded_value = "53.1 µM"

[[record]]
compound = "C=CC(O)C#Cc1cnc(OC)nc1OC (stereo not given)"
result_type = "TGI"
recorded_value = "> 100 µM"

[[record]]
compound = "O=CCOCc1cc2c(cc1Br)OCO2"
result_type = "TGI"
recorded_value = "> 100 µM"

[[record]]
compound = "COc1ccc(/C=N/Nc2nc(N)nc(N3CCCC3)c2C#N)cc1"
result_type = "TGI"
recorded_value = "60.3 µM"

[[record]]
compound = "O=C(NC1CCCCC1)NS(=O)(=O)c1ccc(-n2nc3c(c2-c2cccs2)Cc2ccccc2-3)cc1"
result_type = "TGI"
recorded_value = "65.4 µM"

[[record]]
compound = "Cc1ccc(NS(=O)(=O)c2ccc(-c3cnc(C4CC4)o3)cc2)cc1C"
result_type = "TGI"
recorded_value = "> 45.4 µM"

[[record]]
compound = "Cc1cc(O)c(C=NC(=S)C(N)=S)c(=O)o1"
result_type = "TGI"
recorded_value = "> 100 µM"

[[record]]
compound = "CC[C@@]1(O)C(=O)OCc2c1cc1n(c2=O)Cc2cc3c([N+](=O)[O-])c(OC)ccc3nc2-1"
result_type = "TGI"
recorded_value = "> 77.5 µM"

[[record]]
compound = "CN1CCN(Cc2ccc(NC(=O)c3nc4ccc5[nH]ncc5c4c4c3CCCC4)cc2C(F)(F)F)CC1"
result_type = "TGI"
recorded_value = "1.53 µM"

[[record]]
compound = "Cc1ccc2c(=O)cc(-c3cccc(Cl)c3)[nH]c2n1"
result_type = "TGI"
recorded_value = "> 100 µM"


====

# Test system: UACC-62 melanoma
# experiment_description: NCI tumour cell line growth inhibition, 48 h; in the data active = GI50 below about 0.43 µM; inactive = the rest
Outcomes: active, inactive

[[record]]
query_smiles = "O=[N+]([O-])c1cccc2nc3ccccc3c(NCCO)c12"
system = "UACC-62 melanoma"
class_name = "active"

[[record]]
query_smiles = "O=C1c2[nH]cc(CN3CCN(CCO)CC3)c2C(=O)c2c1c(O)c1ccccc1c2O"
system = "UACC-62 melanoma"
class_name = "inactive"

[[record]]
query_smiles = "Cc1nnc([S-])o1.[Au+].c1ccc([PH+](c2ccccc2)c2ccccc2)cc1"
system = "UACC-62 melanoma"
class_name = "inactive"

[[record]]
query_smiles = "CC(C)(C)CC(C)(C)c1ccc(OCCSC(=N)N)cc1"
system = "UACC-62 melanoma"
class_name = "inactive"


These data points were gathered from PubChem BioAssay (NCI).
